Target: NK2 (Homo sapiens, UniProt P21452)
Sequence (P21452 1-398): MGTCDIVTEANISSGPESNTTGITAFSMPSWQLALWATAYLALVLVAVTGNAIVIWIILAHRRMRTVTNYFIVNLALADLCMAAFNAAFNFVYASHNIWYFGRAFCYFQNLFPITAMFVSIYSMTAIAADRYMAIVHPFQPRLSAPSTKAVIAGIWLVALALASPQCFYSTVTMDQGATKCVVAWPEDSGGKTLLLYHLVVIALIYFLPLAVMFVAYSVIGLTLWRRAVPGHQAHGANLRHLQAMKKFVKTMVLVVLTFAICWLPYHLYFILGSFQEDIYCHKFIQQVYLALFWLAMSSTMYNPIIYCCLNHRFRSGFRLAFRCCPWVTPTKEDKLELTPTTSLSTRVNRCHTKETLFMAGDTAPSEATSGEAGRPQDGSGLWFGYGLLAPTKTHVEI
Assay: Signal transduction (ST), intracellular Ca++ (FLIPR), NK2
Format: cell-based
Conditions: read-out: pIC50 NK2 (converted)
Each record here notes measured IC50.
metric-name: IC50 (µM)

[[record]]
molecule = "O=C(c1c[nH]c2ccccc12)N1CCC(N2CCN([C@H]3CCN(C(=O)c4cc(C(F)(F)F)cc(C(F)(F)F)c4)[C@H](Cc4ccccc4)C3)CC2)C1 (stereo partly drawn)"
metric_name = "IC50"
units_symbol = "µM"
value_measured = 3.16

[[record]]
molecule = "O=C(c1ccsc1)N1CCC(N2CCN([C@H]3CCN(C(=O)c4cc(C(F)(F)F)cc(C(F)(F)F)c4)[C@H](Cc4ccccc4)C3)CC2)C1 (stereo partly drawn)"
metric_name = "IC50"
units_symbol = "µM"
value_measured = 1.58

[[record]]
molecule = "O=C(C1CCOC1)N1CCC(N2CCN(C3CCN(C(=O)c4cc(C(F)(F)F)cc(C(F)(F)F)c4)C(Cc4ccc(Cl)c(Cl)c4)C3)CC2)C1 (single isomer, unassigned) [Compound 330]"
metric_name = "IC50"
units_symbol = "µM"
value_measured = 0.631


----------
target: NK1 (Homo sapiens); assay: Signal transduction (ST), intracellular Ca++ (FLIPR), NK1 antagonistic activity; type: cell-based; conditions: read-out: pIC50 NK1 (converted)
Sequence (P25103 whole entry): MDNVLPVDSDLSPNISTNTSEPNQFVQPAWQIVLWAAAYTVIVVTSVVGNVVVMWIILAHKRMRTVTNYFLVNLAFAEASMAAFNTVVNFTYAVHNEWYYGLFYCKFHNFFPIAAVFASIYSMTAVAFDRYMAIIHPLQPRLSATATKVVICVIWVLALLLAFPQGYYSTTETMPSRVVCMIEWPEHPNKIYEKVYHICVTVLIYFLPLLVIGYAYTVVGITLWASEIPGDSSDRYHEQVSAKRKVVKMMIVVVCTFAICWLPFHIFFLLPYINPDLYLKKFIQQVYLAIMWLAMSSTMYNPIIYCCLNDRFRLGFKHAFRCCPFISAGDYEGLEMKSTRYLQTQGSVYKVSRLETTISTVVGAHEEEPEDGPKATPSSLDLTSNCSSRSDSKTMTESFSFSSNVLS
Labelling field: enter MET if recorded IC50 is less than 10 nM. Enter NOT MET if it equals or exceeds that cut-off.

[[record]]
compound = "COC(=O)CCN1CCC(N2CCN(C3CCN(C(=O)c4cc(C(F)(F)F)cc(C(F)(F)F)c4)C(Cc4ccccc4)C3)CC2)C1 (stereo not drawn) [Compound 80]"
category_label = "NOT MET"

[[record]]
compound = "COc1cccc(S(=O)(=O)N2CCC(N3CCN([C@H]4CCN(C(=O)c5cc(C(F)(F)F)cc(C(F)(F)F)c5)[C@H](Cc5ccccc5)C4)CC3)C2)c1 (stereo partly drawn) [Compound 347]"
category_label = "NOT MET"

[[record]]
compound = "CC(C)(C)C(=O)N1CCC(N2CCN(C3CCN(C(=O)c4cc(C(F)(F)F)cc(C(F)(F)F)c4)C(Cc4ccccc4)C3)CC2)C1 (stereo not drawn) [Compound 167]"
category_label = "MET"

[[record]]
compound = "O=C(OCc1ccccc1C(=O)N1CCC(N2CCN([C@H]3CCN(C(=O)c4cc(C(F)(F)F)cc(C(F)(F)F)c4)[C@H](Cc4ccccc4)C3)CC2)C1)c1ccccc1 (stereo partly drawn) [Compound 346]"
category_label = "NOT MET"


----------
target: UniProt P25103; test: Signal transduction (ST), intracellular Ca++ (FLIPR), NK1 antagonistic activity; type: cell-based; conditions: read-out: pIC50 NK1 (converted)
metric-name: log10 IC50 (log10 of the value in nM)

[[record]]
compound = "O=C(C1COc2ccccc2O1)N1CCC(N2CCN([C@H]3CCN(C(=O)c4cc(C(F)(F)F)cc(C(F)(F)F)c4)[C@H](Cc4ccccc4)C3)CC2)C1 (some centres unmarked) [Compound 98]"
value_measured = 1.10

[[record]]
compound = "O=C(c1ccoc1)N1CC[C@@H](N2CCN([C@H]3CCN(C(=O)c4cc(C(F)(F)F)cc(C(F)(F)F)c4)[C@H](Cc4ccc(Cl)c(Cl)c4)C3)CC2)C1 [Compound 288]"
value_measured = 0.90

[[record]]
compound = "O=C1CCCN1CC(=O)N1CCC(N2CCN([C@H]3CCN(C(=O)c4cc(C(F)(F)F)cc(C(F)(F)F)c4)[C@H](Cc4ccccc4)C3)CC2)C1 (some centres unmarked) [Compound 214]"
value_measured = 1.30

[[record]]
compound = "CC(C)(C)OC(=O)N1CCC(N2CCN(C3CCN(C(=O)c4cc(C(F)(F)F)cc(C(F)(F)F)c4)C(Cc4ccccc4)C3)CC2)C1 (centres unmarked) [Compound 130]"
value_measured = 1.60

[[record]]
compound = "O=C(c1snnc1CO)N1CCC(N2CCN(C3CCN(C(=O)c4cc(C(F)(F)F)cc(C(F)(F)F)c4)C(Cc4ccccc4)C3)CC2)C1 (centres unmarked) [Compound 166]"
value_measured = 0.80

[[record]]
compound = "O=C(c1ccc(CCOCc2ccccc2)s1)N1CCC(N2CCN(C3CCN(C(=O)c4cc(C(F)(F)F)cc(C(F)(F)F)c4)C(Cc4ccccc4)C3)CC2)C1 (centres unmarked) [Compound 356]"
value_measured = 2.10

[[record]]
compound = "O=C(c1cc(C(F)(F)F)cc(C(F)(F)F)c1)N1CC[C@H](N2CCN(C3CCN(S(=O)(=O)c4cccs4)C3)CC2)C[C@H]1Cc1ccc(Cl)c(Cl)c1 (relative stereo) [Compound 163]"
value_measured = 1.40

[[record]]
compound = "O=C(c1cccc(O)c1)N1CCC(N2CCN([C@H]3CCN(C(=O)c4cc(C(F)(F)F)cc(C(F)(F)F)c4)[C@H](Cc4ccccc4)C3)CC2)C1 (some centres unmarked) [Compound 332]"
value_measured = 0.70

[[record]]
compound = "O=C(c1cc(C(F)(F)F)cc(C(F)(F)F)c1)N1CCC(N2CCN(C3CCNC3)CC2)CC1Cc1ccc(F)c(F)c1 (single isomer, unassigned) [Compound 212]"
value_measured = 1.70

[[record]]
compound = "O=C(C1CCOC1)N1CCC(N2CCN(C3CCN(C(=O)c4cc(C(F)(F)F)cc(C(F)(F)F)c4)C(Cc4ccccc4)C3)CC2)C1 (single isomer, unassigned) [Compound 139]"
value_measured = 2.20

[[record]]
compound = "O=C(c1cccs1)N1CC[C@@H](N2CCN([C@H]3CCN(C(=O)c4cc(C(F)(F)F)cc(C(F)(F)F)c4)[C@H](Cc4ccccc4)C3)CC2)C1 [Compound 321]"
value_measured = 1.10


----------
Target: NK2 (Homo sapiens)
Test: Signal transduction (ST), intracellular Ca++ (FLIPR), NK2
Type: cell-based
Conditions: read-out: pIC50 NK2 (converted)
Experimental: [The procedure below names another target; the source lists this target under the same test.] This test evaluates in vitro functional NK1 antagonistic activity. For the measurements of intracellular Ca^++ concentrations the cells were grown on 96-well (black wall/transparent bottom) plates from Costar for 2 days until they reached confluence. […] The cells were preincubated with a concentration range of antagonists for 20 min at RT and Ca^++-signals after addition of the agonists were measured in a Fluorescence Image Plate Reader (FLIPR from Molecular Devices, Crawley, England). […]
metric-name: IC50 (µM)

[[record]]
compound = "O=C(c1cccs1)N1CCC(N2CCN(C3CCN(C(=O)c4cc(C(F)(F)F)cc(C(F)(F)F)c4)C(Cc4ccc(Cl)c(Cl)c4)C3)CC2)C1 (centres unmarked)"
value_measured = 1

[[record]]
compound = "O=C(c1cc(F)ccc1F)N1CCC(N2CCN([C@H]3CCN(C(=O)c4cc(C(F)(F)F)cc(C(F)(F)F)c4)[C@H](Cc4ccccc4)C3)CC2)C1 (some centres unmarked)"
value_measured = 5.01

[[record]]
compound = "O=C(c1c(Cl)cccc1Cl)N1CCC(N2CCN(C3CCN(C(=O)c4cc(C(F)(F)F)cc(C(F)(F)F)c4)C(Cc4ccc(F)c(F)c4)C3)CC2)C1 (single isomer, unassigned) [Compound 239]"
value_measured = 1

[[record]]
compound = "O=C(C1CCCCN1C(=O)C1CC1)N1CCC(N2CCN([C@H]3CCN(C(=O)c4cc(C(F)(F)F)cc(C(F)(F)F)c4)[C@H](Cc4ccccc4)C3)CC2)C1 (some centres unmarked)"
value_measured = 1.58

[[record]]
compound = "O=C(c1c(Cl)cccc1Cl)N1CC[C@@H](N2CCN([C@H]3CCN(C(=O)c4cc(C(F)(F)F)cc(C(F)(F)F)c4)[C@H](Cc4ccc(Cl)c(Cl)c4)C3)CC2)C1"
value_measured = 1.58

[[record]]
compound = "O=C(c1cc(C(F)(F)F)cc(C(F)(F)F)c1)N1CC[C@H](N2CCN(C3CCN(S(=O)(=O)c4ccc(CCOCc5ccccc5)s4)C3)CC2)C[C@H]1Cc1ccccc1 (some centres unmarked)"
value_measured = 1

[[record]]
compound = "N#Cc1ccc(C(=O)N2CCC(N3CCN([C@H]4CCN(C(=O)c5cc(C(F)(F)F)cc(C(F)(F)F)c5)[C@H](Cc5ccccc5)C4)CC3)C2)cc1 (some centres unmarked)"
value_measured = 5.01

[[record]]
compound = "O=C(c1cc(CCOCc2ccccc2)cs1)N1CCC(N2CCN([C@H]3CCN(C(=O)c4cc(C(F)(F)F)cc(C(F)(F)F)c4)[C@H](Cc4ccccc4)C3)CC2)C1 (some centres unmarked)"
value_measured = 2.51

[[record]]
compound = "CC(C(=O)N1CCC(N2CCN([C@H]3CCN(C(=O)c4cc(C(F)(F)F)cc(C(F)(F)F)c4)[C@H](Cc4ccccc4)C3)CC2)C1)c1ccccc1 (some centres unmarked)"
value_measured = 0.631

[[record]]
compound = "O=C(c1cc(C(F)(F)F)cc(C(F)(F)F)c1)N1CCC(N2CCN(C3CCN(S(=O)(=O)c4cc(CCO)cs4)C3)CC2)CC1Cc1ccccc1 (centres unmarked)"
value_measured = 0.126

[[record]]
compound = "O=C(c1ccoc1)N1CCC(N2CCN([C@H]3CCN(C(=O)c4cc(C(F)(F)F)cc(C(F)(F)F)c4)[C@H](Cc4ccccc4)C3)CC2)C1 (some centres unmarked)"
value_measured = 3.16

